system: hPIV3 C243 virus strain; assay type: cell-based, hPIV; conditions: LLC-MK2 cells, hPIV3 C243, plaque reduction; read-out: EC50 against hPIV3 virus
The star is where a group is joined. Succinyl(4-O-cholesteryl) = CC(C)CCC[C@@H](C)[C@H]1CC[C@H]2[C@@H]3CC=C4C[C@@H](OC(=O)CCC(=O)*)CC[C@]4(C)[C@H]3CC[C@]12C
readout_type: pEC50
Numbers only, as −log10 of the molar value.

INSERT INTO assay_data (substance, experimental_target, readout_type, quantitative_readout) VALUES
  ('Ac-WDEFDASISQVNEKINQSLEEIRKSDELLHNVNALEAAAKK(Succinyl(4-O-cholesteryl))-NH2 [Compound 38]', 'hPIV3 C243 virus strain', 'pEC50', 7.58),
  ('Ac-FDEEISQVNEKINQSLAFIRKSDELLHNVNAGKSTTEAAAKK(Succinyl(4-O-cholesteryl))-NH2 [Compound 26]', 'hPIV3 C243 virus strain', 'pEC50', 8.87),
  ('Ac-WDEFDASISQVNEKINQSLEEIRKSDELLHNVNAGLGSGSGK(Succinyl(4-O-cholesteryl))-NH2 [Compound 27]', 'hPIV3 C243 virus strain', 'pEC50', 7.57),
  ('Ac-SLEQVNEKINQSLAFIRKSDEINQSDEEVNKSDELLEAAAKK-NH2 [Compound 50]', 'hPIV3 C243 virus strain', 'pEC50', 7.46);

// below: pEC50 requested for another substance
Req: Indicate its recorded pEC50; the substance in question is Ac-LVKKIDEFDASISQVNEKINQSLEEIRKSDELLHNVGSGSGK(Succinyl(4-O-cholesteryl))-NH2 [Compound 29]
Resp: 7.58
